subject-of-test: BRM (Homo sapiens, UniProt P51531)
Sequence (P51531 whole entry): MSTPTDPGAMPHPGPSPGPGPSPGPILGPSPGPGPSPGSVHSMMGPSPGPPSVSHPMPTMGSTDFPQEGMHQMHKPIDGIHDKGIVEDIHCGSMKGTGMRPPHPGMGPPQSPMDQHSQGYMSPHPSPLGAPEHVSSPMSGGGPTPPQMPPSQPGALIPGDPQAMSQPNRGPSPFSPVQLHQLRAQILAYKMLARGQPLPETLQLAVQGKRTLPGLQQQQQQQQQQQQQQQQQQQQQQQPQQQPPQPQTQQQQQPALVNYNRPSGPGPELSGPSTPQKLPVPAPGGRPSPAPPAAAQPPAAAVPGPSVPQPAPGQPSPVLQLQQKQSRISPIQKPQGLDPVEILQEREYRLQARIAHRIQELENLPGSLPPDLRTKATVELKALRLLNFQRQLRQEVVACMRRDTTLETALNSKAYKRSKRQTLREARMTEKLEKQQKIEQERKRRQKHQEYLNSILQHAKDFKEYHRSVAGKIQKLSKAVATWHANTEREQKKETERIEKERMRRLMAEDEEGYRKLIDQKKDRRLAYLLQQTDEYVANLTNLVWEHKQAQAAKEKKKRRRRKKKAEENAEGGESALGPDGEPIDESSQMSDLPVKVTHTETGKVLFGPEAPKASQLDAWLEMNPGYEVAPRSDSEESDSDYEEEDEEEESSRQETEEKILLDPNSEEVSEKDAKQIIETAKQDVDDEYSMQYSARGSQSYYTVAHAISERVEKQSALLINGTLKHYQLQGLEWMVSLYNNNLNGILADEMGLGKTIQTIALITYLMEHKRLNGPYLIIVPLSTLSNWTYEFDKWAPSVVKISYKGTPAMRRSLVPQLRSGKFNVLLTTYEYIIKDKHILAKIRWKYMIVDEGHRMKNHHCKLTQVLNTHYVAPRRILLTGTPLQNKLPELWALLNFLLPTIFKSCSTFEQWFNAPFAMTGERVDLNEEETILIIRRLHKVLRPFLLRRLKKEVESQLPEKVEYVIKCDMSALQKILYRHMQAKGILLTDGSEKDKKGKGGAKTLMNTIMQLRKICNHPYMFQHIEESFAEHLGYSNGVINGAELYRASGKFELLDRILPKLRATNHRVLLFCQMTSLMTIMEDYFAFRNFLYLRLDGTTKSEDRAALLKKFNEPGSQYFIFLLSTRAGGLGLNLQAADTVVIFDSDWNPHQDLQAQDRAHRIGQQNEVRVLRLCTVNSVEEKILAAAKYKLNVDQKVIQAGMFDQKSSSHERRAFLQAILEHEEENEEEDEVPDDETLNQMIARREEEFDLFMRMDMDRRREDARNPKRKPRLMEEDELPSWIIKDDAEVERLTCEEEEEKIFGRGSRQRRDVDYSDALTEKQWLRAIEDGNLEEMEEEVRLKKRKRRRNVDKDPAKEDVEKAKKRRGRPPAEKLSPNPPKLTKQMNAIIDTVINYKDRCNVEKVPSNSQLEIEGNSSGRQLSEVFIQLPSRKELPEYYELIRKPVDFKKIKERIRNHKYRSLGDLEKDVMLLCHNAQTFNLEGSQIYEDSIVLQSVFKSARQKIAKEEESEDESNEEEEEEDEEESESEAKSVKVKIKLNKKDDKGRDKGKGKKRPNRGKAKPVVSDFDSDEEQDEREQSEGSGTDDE
method-description: ATPase catalytic activity assay (ADP-Glo), BRM
measurement-parameters: 30 nM BRM, 400 μM ATP
property: BRM Max % Inhibition (%)
Numbers only, in %.

Look over these answered cases.
{"columns": ["compound", "unit-label", "BRM Max % Inhibition"],
 "data": [
  ["C[C@@]1(C#N)COCc2ccc(C(=O)NCc3cc(OCc4cc(F)c5c(c4)CCO5)ccn3)cc21", "%", 96],
  ["CN1CC(c2cccc(-c3ccc4cnc(CNC(=O)c5ccc6c(c5)[C@](C)(C#N)COC6)cc4n3)n2)C1", "%", 89],
  ["COc1nn(C)cc1-c1cnc2cnc(CNC(=O)c3ccc4c(c3)[C@](C)(F)COC4)cc2n1", "%", 94],
  ["C[C@@]1(C#N)COCc2ccc(C(=O)NCc3cc(CCc4ccccc4)ccn3)cc21", "%", 94],
  ["C[C@@]1(C#N)COCc2ccc(C(=O)NCc3cc4nc(-n5cc(F)cn5)ccc4cn3)cc21", "%", 91],
  ["CC(=O)N1CCOc2ccc(-c3ccc4cnc(CNC(=O)c5ccc6c(c5)[C@](C)(C#N)COC6)cc4n3)cc21", "%", 99],
  ["Cn1ncc2c1CN(c1ccc3cnc(CNC(=O)c4ccc5c(c4)[C@](C)(C#N)COC5)cc3n1)CC2", "%", 95],
  ["C[C@@]1(F)COCc2ncc(C(=O)NCc3cc4nc(-c5ccccc5)sc4cn3)cc21", "%", 94],
  ["COc1nn(C2CCC2)cc1-c1ccc2cnc(CNC(=O)c3ccc4c(c3)[C@](C)(C#N)COC4)cc2n1", "%", 97],
  ["C[C@@]1(C#N)COCc2c(F)cc(C(=O)NCc3cc4nc(-c5cncc(N6CCC6)n5)ccc4cn3)cc21", "%", 100]
]}

Provide reported BRM Max % Inhibition for each item, in the same order as listed.
1. CO[C@@H]1CCN(c2cncc(-c3ccc4cnc(CNC(=O)c5ccc6c(c5)[C@](C)(F)COC6)cc4c3)n2)C1
2. CN(C)c1ncc(-c2ccc3cnc(CNC(=O)c4ccc5c(c4)[C@](C)(C#N)COC5)cc3n2)cn1
3. C[C@@]1(C#N)COCc2ccc(C(=O)NCc3cc4nc(-c5ccnc(N6CC7CC7C6)n5)ccc4cn3)cc21 (stereo partly drawn)
4. CNC(=O)c1cccc(-c2ccc3cnc(CNC(=O)c4ccc5c(c4)[C@](C)(C#N)COC5)cc3n2)c1
5. C[C@@]1(C#N)COCc2ccc(C(=O)NCc3cc(/C(F)=C(\F)c4ccccc4)ccn3)cc21

Result block:
1. 103
2. 86
3. 105
4. 93
5. 95

###

subject-of-test: BRM (Homo sapiens, UniProt P51531)
method-description: ATPase catalytic activity assay (ADP-Glo), BRM
measurement-parameters: 30 nM BRM, 400 μM ATP
property: BRM Max % Inhibition (%)
Answers are plain numbers, in %.

Look over these answered cases.
{"columns": ["molecule", "BRM Max % Inhibition (%)"],
 "data": [
  ["Cc1nn(C)cc1-c1ccc2cnc(CNC(=O)c3ccc4c(c3)[C@](C)(C#N)COC4)cc2n1", 93],
  ["COc1nn(C2COC2)cc1-c1ccc2cnc(CNC(=O)c3ccc4c(c3)[C@](C)(F)COC4)cc2n1", 99],
  ["C[C@@]1(C#N)COCc2ccc(C(=O)NCc3ncc4ccc(-c5ccccc5)nc4c3F)cc21", 93],
  ["C[C@@]1(C#N)COCc2ccc(C(=O)NCc3cc4nc(-c5ccncc5)ccc4cn3)cc21", 93]
]}

Provide reported BRM Max % Inhibition for each item, in the same order as listed.
1. C[C@@]1(C#N)COCc2ccc(C(=O)NCc3cc4nc(-n5cc(F)c(N6CCC6)n5)ccc4cn3)cc21
2. COC(=O)c1cccc(C#Cc2ccnc(CNC(=O)c3ccc4c(c3)[C@](C)(C#N)CCO4)c2)c1
3. C[C@@]1(C#N)COCc2ccc(C(=O)NCc3cc4nc(-c5ccnc(N6C[C@H]7C[C@@H]6CO7)n5)ccc4cn3)cc21
4. COc1c(-c2ccc3cnc(CNC(=O)c4ccc5c(c4)[C@](C)(C#N)COC5)cc3n2)cnn1C
5. C[C@@]1(C#N)COCc2ccc(C(=O)NCc3cc4nc(-c5ccnc(N6CCOCC6)n5)ccc4cn3)cc21

Result block:
[98, 94, 97, 93, 99]

Provide reported BRM Max % Inhibition for each item, in the same order as listed.
1. COc1nn(C)cc1-c1ccc2nnc(CNC(=O)c3ccc4c(c3)[C@](C)(F)COC4)cc2n1
2. C[C@@]1(C#N)COCc2ccc(C(=O)NCc3cc(N4Cc5ccccc5C4)ccn3)cc21
3. C[C@@]1(F)COCc2ncc(C(=O)NCc3cc4nc(-c5cccc(N6CCC6)n5)cnc4cn3)cc21
4. C[C@@H]1CN(c2cccc([C@H]3C[C@@H](c4ccnc(CNC(=O)c5ccc6c(c5)[C@](C)(C#N)COC6)c4)C3)n2)C[C@H](C)O1

Result block:
1. 96
2. 96
3. 98
4. 88

Provide reported BRM Max % Inhibition for each item, in the same order as listed.
1. Cn1ccc2c(-c3ccc4cnc(CNC(=O)c5ccc6c(c5)[C@](C)(C#N)COC6)cc4n3)cc(F)cc21
2. C[C@@]1(C#N)CCNc2ccc(C(=O)NCc3cc4nc(-c5ccccc5)sc4cn3)cc21

Result block:
98
8

Provide reported BRM Max % Inhibition for each item, in the same order as listed.
1. COc1ccncc1-c1ccc2cnc(CNC(=O)c3ccc4c(c3)[C@](C)(C#N)COC4)cc2n1
2. CN(C)c1cncc(-c2ccc3cnc(CNC(=O)c4ccc5c(c4)[C@](C)(C#N)COC5)cc3n2)n1
3. COCCC(=O)N1CCN(c2cccc(-c3ccc4cnc(CNC(=O)c5ccc6c(c5)[C@](C)(C#N)COC6)cc4n3)n2)CC1

Result block:
1: 97; 2: 99; 3: 101

Provide reported BRM Max % Inhibition for each item, in the same order as listed.
1. C[C@@]1(C#N)COCc2ccc(C(=O)NCc3cc4nc(-c5cncc(N6CC[C@@H](F)C6)n5)ccc4cn3)cc21
2. Cn1ccc(-c2ccc3cnc(CNC(=O)c4ccc5c(c4)[C@](C)(C#N)COC5)cc3n2)n1
3. C[C@@]1(C#N)COCc2ccc(C(=O)NCc3cc(C4CCN(c5cccc(C(F)F)n5)C4)ccn3)cc21 (some centres unmarked)
4. C[C@@]1(F)COCc2ncc(C(=O)NCc3cc4nc(-c5cncc(C6CC6)n5)ccc4cn3)cc21
5. C[C@@]1(F)COCc2ccc(C(=O)NCc3cc4nc(-c5cccc(N6CCC6)n5)cnc4cn3)cc21
6. CN1C(=O)Cc2cc(-c3ccc4cnc(CNC(=O)c5ccc6c(c5)[C@](C)(C#N)COC6)cc4n3)ccc21
7. C[C@@]1(C#N)COCc2ccc(C(=O)NCc3cc(N4CC(c5ccccc5)C4)ccn3)cc21
8. C[C@@]1(C#N)COc2ccc(C(=O)NCc3cc4nc(-c5ccccc5)ccc4cn3)cc21

Result block:
100
79
90
96
99
98
89
63

Provide reported BRM Max % Inhibition for each item, in the same order as listed.
1. C[C@@H]1CN(c2cccc([C@H]3C[C@H](c4ccnc(CNC(=O)c5ccc6c(c5)[C@](C)(C#N)COC6)c4)C3)n2)C[C@H](C)O1
2. C[C@@]1(C#N)COCc2ccc(C(=O)NCc3cc4nc(-c5ccc(N6CCC6)nc5)ccc4cn3)cc21
3. C[C@@]1(C#N)COCc2ccc(C(=O)NCc3ncc4ccc(-c5ccccc5)cc4n3)cc21

Result block:
1: 98; 2: 95; 3: 97

###

Please go through the items and note down their Emax.
subject-of-test: BRG-1 (Homo sapiens)
Sequence (P51532 whole entry): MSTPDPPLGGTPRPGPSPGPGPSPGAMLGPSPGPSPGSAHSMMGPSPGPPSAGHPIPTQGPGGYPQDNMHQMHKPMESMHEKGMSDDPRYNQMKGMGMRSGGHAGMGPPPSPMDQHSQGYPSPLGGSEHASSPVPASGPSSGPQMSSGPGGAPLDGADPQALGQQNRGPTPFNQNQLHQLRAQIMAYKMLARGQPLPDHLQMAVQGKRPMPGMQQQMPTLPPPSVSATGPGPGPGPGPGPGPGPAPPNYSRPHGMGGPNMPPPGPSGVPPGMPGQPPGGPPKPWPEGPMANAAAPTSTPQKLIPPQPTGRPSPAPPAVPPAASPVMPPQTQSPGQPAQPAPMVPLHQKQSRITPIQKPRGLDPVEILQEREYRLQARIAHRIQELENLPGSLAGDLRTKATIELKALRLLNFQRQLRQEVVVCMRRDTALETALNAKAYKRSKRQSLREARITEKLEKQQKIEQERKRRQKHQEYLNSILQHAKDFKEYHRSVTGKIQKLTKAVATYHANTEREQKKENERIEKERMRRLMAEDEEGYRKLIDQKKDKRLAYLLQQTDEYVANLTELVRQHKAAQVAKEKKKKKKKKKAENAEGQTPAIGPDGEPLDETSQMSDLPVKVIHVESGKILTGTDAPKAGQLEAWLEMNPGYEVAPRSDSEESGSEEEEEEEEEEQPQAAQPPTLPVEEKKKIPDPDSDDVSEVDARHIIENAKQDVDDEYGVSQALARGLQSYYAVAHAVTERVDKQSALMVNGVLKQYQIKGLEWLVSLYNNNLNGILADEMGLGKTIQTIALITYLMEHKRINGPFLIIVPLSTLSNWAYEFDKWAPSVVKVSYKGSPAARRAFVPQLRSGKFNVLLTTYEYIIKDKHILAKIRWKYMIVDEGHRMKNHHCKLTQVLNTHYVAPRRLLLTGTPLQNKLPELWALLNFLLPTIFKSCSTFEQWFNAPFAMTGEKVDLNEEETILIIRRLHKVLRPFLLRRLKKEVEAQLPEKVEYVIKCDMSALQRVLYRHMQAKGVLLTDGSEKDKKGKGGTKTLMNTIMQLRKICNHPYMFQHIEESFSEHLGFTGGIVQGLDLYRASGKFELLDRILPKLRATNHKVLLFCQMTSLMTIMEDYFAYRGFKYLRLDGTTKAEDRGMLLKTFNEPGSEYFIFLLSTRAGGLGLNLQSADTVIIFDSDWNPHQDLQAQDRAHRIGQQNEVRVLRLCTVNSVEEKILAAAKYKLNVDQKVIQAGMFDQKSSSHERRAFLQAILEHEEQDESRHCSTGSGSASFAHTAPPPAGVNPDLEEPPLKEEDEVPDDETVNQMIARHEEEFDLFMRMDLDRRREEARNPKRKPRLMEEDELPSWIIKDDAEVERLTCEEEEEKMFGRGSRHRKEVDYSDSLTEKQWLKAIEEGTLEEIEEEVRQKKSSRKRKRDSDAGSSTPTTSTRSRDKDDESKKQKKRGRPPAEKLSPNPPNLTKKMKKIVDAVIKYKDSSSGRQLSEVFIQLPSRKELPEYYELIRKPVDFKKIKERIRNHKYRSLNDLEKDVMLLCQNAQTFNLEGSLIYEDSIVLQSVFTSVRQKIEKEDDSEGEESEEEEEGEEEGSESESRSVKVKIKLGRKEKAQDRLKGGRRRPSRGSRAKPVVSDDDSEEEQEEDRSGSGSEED
method-description: ATPase catalytic activity assay (ADP-Glo), BRG-1
measurement-parameters: 1 h, read-out: BRG1 Max % Inhibition, ADP-Glo, 30 nM BRG-1, 400 μM ATP
A complete answer gives the number followed by the unit.

{"columns": ["compound", "property", "endpoint-result"],
 "data": [
  ["C[C@@]1(C#N)COCc2ccc(C(=O)NCc3cc4cc(-c5ccccc5)ccc4cn3)cc21 [Compound 123]", "Emax", "74%"],
  ["C[C@@]1(CO)CCc2ccc(C(=O)NCc3cc4nc(-c5ccccc5)ccc4cn3)cc21 [Compound 90]", "Emax", "24%"],
  ["COc1cccc([C@H]2C[C@@H](c3ccnc(CNC(=O)c4ccc5c(c4)[C@](C)(C#N)COC5)c3)C2)c1 [Compound 71]", "Emax", "42%"],
  ["C[C@@]1(C#N)COCc2ccc(C(=O)NCc3cc4nc(-c5cnccn5)ccc4cn3)cc21 [Compound 520]", "Emax", "53%"],
  ["COC1CN(c2nccc(-c3ccc4cnc(CNC(=O)c5ccc6c(c5)[C@](C)(C#N)COC6)cc4n3)n2)C1 [Compound 430]", "Emax", "92%"]
]}

Provide reported Emax for each item, in the same order as listed.
1. COc1cc(C)ccc1-c1ccc2cnc(CNC(=O)c3ccc4c(c3)[C@](C)(C#N)COC4)cc2n1 [Compound 144]
2. C[C@@]1(F)COCc2ncc(C(=O)NCc3cc4nc(-c5ccccc5)ccc4cn3)cc21 [Compound 413]

Result block:
1. 95%
2. 51%
